Where these numbers come from: paper PMC12199309

biological target: α-Glucosidase (EC 3.2.1.20) (Saccharomyces cerevisiae, UniProt P53341); construct: purchased Sigma Chemical Co. (St. Louis, MO, USA); experiment: biochemical; settings: read-out: Inhibition rate (%)
Sequence (P53341 whole entry): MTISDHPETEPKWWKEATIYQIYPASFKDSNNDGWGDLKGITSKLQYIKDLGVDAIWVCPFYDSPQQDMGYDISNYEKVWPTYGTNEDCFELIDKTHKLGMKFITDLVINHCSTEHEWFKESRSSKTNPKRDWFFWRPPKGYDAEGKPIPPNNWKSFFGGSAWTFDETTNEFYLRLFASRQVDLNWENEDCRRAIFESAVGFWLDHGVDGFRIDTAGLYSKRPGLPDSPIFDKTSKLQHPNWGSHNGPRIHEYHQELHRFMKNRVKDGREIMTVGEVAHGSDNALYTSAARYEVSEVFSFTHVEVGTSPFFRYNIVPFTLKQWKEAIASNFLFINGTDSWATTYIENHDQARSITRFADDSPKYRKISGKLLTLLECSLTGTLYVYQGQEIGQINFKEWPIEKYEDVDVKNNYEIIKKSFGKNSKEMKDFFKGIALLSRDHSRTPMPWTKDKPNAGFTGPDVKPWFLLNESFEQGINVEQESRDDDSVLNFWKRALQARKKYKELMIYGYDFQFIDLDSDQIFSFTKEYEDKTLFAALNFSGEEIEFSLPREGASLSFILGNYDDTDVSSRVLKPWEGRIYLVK
Provide the reported inhibition at 25 µM of each item.
Give bare numbers, in %.

Recorded results for 3 compounds are shown here.
C=C1CCC2C(C)(C)CCCC2(C)C1C=CC(=O)O (stereo not shown) : 16.6
C=C1CCC2C(C)(C)CCCC2(C)C1CC=C(CO)C(=O)O (stereo not shown) : 46.3
C[C@H]1O[C@H](O[C@H]2[C@H](O)[C@@H](O)[C@@H](O[C@H]3[C@H](O)[C@@H](O)C(O)O[C@@H]3CO)O[C@@H]2CO)[C@H](O)[C@@H](O)[C@@H]1N[C@H]1C=C(CO)[C@@H](O)[C@H](O)[C@H]1O (stereo partly shown) [PC, acarbose, reference compound] : 8.6

Okay, now this compound:
What value of inhibition at 25 µM has been reported for the following compound? C=C1CCC2C(C)(C)CCCC2(C)C1CC=C(COC(C)=O)C(=O)O (stereo not shown)
81.4

====

Target: α-Glucosidase (EC 3.2.1.20) (Saccharomyces cerevisiae, UniProt P53341)
Construct: purchased Sigma Chemical Co. (St. Louis, MO, USA)
Assay: biochemical
Conditions: read-out: Inhibition rate (%)
Experimental: Five isolated compounds were examined to assess their inhibitory effect on α-glucosidase at concentrations ranging from 1 to 100 μM. […] Optical values were conducted on a Shimadzu UV-1800 spectrophotometer (Shimadzu Pte., Ltd, Singapore). IR spectra were measured with a Shimadzu IR-408 infrared spectrometer (Shimadzu Pte., Ltd, Singapore). […] The inhibitory activity of α-glucosidase was assessed using a modified method based on Kurihara et al.[37] […]
Field: inhibition at 100 µM. Provide a value for each of the compounds that follow.

C=C1CCC2C(C)(C)CCCC2(C)C1CC=C(CO)C(=O)O (stereo not shown) : 99.1%
C=C1CCC2C(C)(C)CCCC2(C)C1CC=C(COC(C)=O)C(=O)O (stereo not shown) : 98.8%
C[C@H]1O[C@H](O[C@H]2[C@H](O)[C@@H](O)[C@@H](O[C@H]3[C@H](O)[C@@H](O)C(O)O[C@@H]3CO)O[C@@H]2CO)[C@H](O)[C@@H](O)[C@@H]1N[C@H]1C=C(CO)[C@@H](O)[C@H](O)[C@H]1O (stereo partly shown) [PC, acarbose, reference compound] : 32.1%

Moving on to another compound below.
May I ask what inhibition at 100 µM has been recorded for C=C1CCC2C(C)(C)CCCC2(C)C1C=CC(=O)O (stereo not shown) ?
99.8%

====

target: α-Glucosidase (EC 3.2.1.20) (Saccharomyces cerevisiae, UniProt P53341); construct: purchased Sigma Chemical Co. (St. Louis, MO, USA); assay: biochemical; conditions: read-out: Inhibition rate (%)
I'd be grateful if you could share measured inhibition at 10 µM for these entries.
One number for each entry, in %.

Check out these entries, answers already filled in.
C=C1CCC2C(C)(C)CCCC2(C)C1C=CC(=O)O (centres unmarked) [CZ5] : 3.5
C=C1CC[C@H]2C(C)(C)CCC[C@]2(C)[C@H]1/C=C/C1=C(O)COC1=O [CZ3, zerumin] : 73.4
C=C1CCC2C(C)(C)CCCC2(C)C1CC=C(CO)C(=O)O (centres unmarked) [CZ2] : 24.6
C=C1CC[C@H]2C(C)(C)CCC[C@]2(C)[C@H]1CCC1=CC(O)OC1=O (some centres unmarked) [CZ4, coronarin C] : 95.4

Next molecule, inhibition at 10 µM to be filled in.
API: value(readout=inhibition at 10 µM, system=α-Glucosidase (EC 3.2.1.20) (Saccharomyces cerevisiae, UniProt P53341)) for record C=C1CCC2C(C)(C)CCCC2(C)C1CC=C(COC(C)=O)C(=O)O (centres unmarked) [CZ1, zedolabdin A]
29.5

====

biological target: α-Glucosidase (EC 3.2.1.20) (Saccharomyces cerevisiae); construct: purchased Sigma Chemical Co. (St. Louis, MO, USA); assay: biochemical; conditions: read-out: Inhibition rate (%)
reported_property: inhibition at 50 µM (%)
Numbers only, in %.

Record excerpt, results attached:
C=C1CCC2C(C)(C)CCCC2(C)C1C=CC(=O)O (stereo not shown) [CZ5] : 75.8
C[C@H]1O[C@H](O[C@H]2[C@H](O)[C@@H](O)[C@@H](O[C@H]3[C@H](O)[C@@H](O)C(O)O[C@@H]3CO)O[C@@H]2CO)[C@H](O)[C@@H](O)[C@@H]1N[C@H]1C=C(CO)[C@@H](O)[C@H](O)[C@H]1O (stereo partly shown) [PC, acarbose, reference compound] : 19.7

Below is a list of compounds. For each, state its recorded inhibition at 50 µM.
1. C=C1CCC2C(C)(C)CCCC2(C)C1CC=C(COC(C)=O)C(=O)O (stereo not shown) [CZ1, zedolabdin A]
2. C=C1CCC2C(C)(C)CCCC2(C)C1CC=C(CO)C(=O)O (stereo not shown) [CZ2]

1: 96.2; 2: 72.4

====

Consider the following molecules; for each one, report its IC50.
molecular target: α-Glucosidase (EC 3.2.1.20) (Saccharomyces cerevisiae, UniProt P53341); construct: purchased Sigma Chemical Co. (St. Louis, MO, USA); assay: biochemical; conditions: α-glucosidase inhibition, 37 °C, 30 minutes, pH 7.0; read-out: IC50
Numbers only, in µM.

C=C1CC[C@H]2C(C)(C)CCC[C@]2(C)[C@H]1/C=C/C1=C(O)COC1=O : 6.2

Returns the measured IC50 for the input molecule. Input: C=C1CC[C@H]2C(C)(C)CCC[C@]2(C)[C@H]1CCC1=CC(O)OC1=O (some centres unmarked)
3
